The following compounds are shown together with reported rat_fu values.
Experiment: Protein binding test (equilibrium dialysis, unbound ratio fu in serum)
Assay type: in vitro ADME
Conditions: rat serum, equilibrium dialysis 24 hours, 37° C., 2 μg/mL

COMPOUND	rat_fu
COc1ccc(S(=O)(=O)N(CC(C)C)CC(O)C(Cc2ccc(NCc3ncc(-c4sc5c(c4C(=O)O)CC(C)(C)CC5)s3)cc2)NC(=O)OC2COC3(C)OCCC23)cc1 (stereo not drawn)	<0.1%
COc1ccc(S(=O)(=O)N(CC(C)C)CC(O)C(Cc2ccc(NCC3=C(c4sc5c(c4C(=O)O)CC(C)(C)CC5)CCCC3)cc2)NC(=O)OC2COC3(C)OCCC23)cc1 (stereo not drawn)	<0.1%

Then this compound:
Reported rat_fu, compound CC(C)CN(CC(O)C(Cc1ccc(CCc2sc3c(c2C(=O)O)CC(C)(C)CC3)cc1)NC(=O)OC1COC2(C)OCCC12)S(=O)(=O)c1ccc(N)cc1 (stereo not drawn) : ____ <0.1%

----------
Assay: Evaluation of total body clearance (CLtot), intravenous administration
Format: in vivo, Sprague-Dawley (SD)
Conditions: rat (SD), intravenous administration 0.5-10 mg/kg; CLtot = dose/AUC
VALUE TYPE: rat_CLt
Include the unit after the number when you answer.

// solved cases for rat_CLt follow
MOLECULE	REPORTED RESULT
COc1ccc(S(=O)(=O)N(CC(C)C)C[C@@H](O)[C@H](Cc2ccc(O[C@@H]3CCN(c4ccccc4-c4sc5c(c4C(=O)O)CC(C)(C)CC5)C3)cc2)NC(=O)O[C@H]2CO[C@@]3(C)OCC[C@@H]23)cc1 [Compound I-6]	1.22 mL/min/kg
COc1ccc(S(=O)(=O)N(CC(C)C)CC(O)C(Cc2ccc(CN(C)Cc3ccc(-c4sc5c(c4C(=O)O)CC(C)(C)CC5)cc3)cc2)NC(=O)OC2COC3(C)OCCC23)cc1 (stereo not shown) [Compound I-267]	5.01 mL/min/kg
CC(C)CN(CC(O)C(Cc1ccc(NCc2ccccc2-c2sc3c(c2C(=O)O)CC(C)(C)CC3)cc1)NC(=O)OC1COC2(C)OCCC12)S(=O)(=O)c1ccc2c(c1)OCO2 (stereo not shown) [Compound I-465]	0.675 mL/min/kg

Entry under review: COc1ccc(S(=O)(=O)N(CC(C)C)CC(O)C(Cc2ccc(N(C)Cc3ccc(-c4sc5c(c4C(=O)O)CC(C)(C)CC5)cn3)cc2)NC(=O)OC2COC3(C)OCCC23)cc1 (stereo not shown) [Compound I-449] . Reported rat_CLt? 11.1 mL/min/kg

----------
Target: HIV-1 PR (Human immunodeficiency virus type 1 group M subtype B, UniProt P04585)
Experiment: HIV-protease inhibitory activity assay (FRET peptide substrate)
Details: Test Example 1
VALUE TYPE: pIC50
Scale: negative log10 of molar concentration, which is what pIC50 denotes.

Examples from the recorded data:
MOLECULE	REPORTED RESULT
COc1ccc(S(=O)(=O)N(CC(C)C)CC(O)C(Cc2ccc(N(CCCc3ccccc3)Cc3ccccc3-c3sc4c(c3C(=O)O)CC(C)(C)CC4)cc2)NC(=O)OC2COC3(C)OCCC23)cc1 (centres unmarked) [Compound I-426]	8.09
CC(C)CN(CC(O)C(Cc1ccc(OCc2ccccc2-c2ccc3c(c2)C(=O)C(c2ccc(F)cc2)C3=O)cc1)NC(=O)OC1COC2(C)OCCC12)S(=O)(=O)c1ccc2ncsc2c1 (centres unmarked) [Compound I-175]	8.70
COc1ccc(S(=O)(=O)N(CC2CCCC2)CC(O)C(Cc2ccc(OCCn3nc4c(c3C(=O)O)CC(C)(C)CC4)cc2)NC(=O)OC2COC3(C)OCCC23)cc1 (centres unmarked) [Compound I-366]	8.57
COc1ccc(S(=O)(=O)N(CC(C)C)CC(O)C(Cc2ccc(N(C)Cc3ccccc3-n3nc4c(c3C(=O)O)CC3(CCCC3)CC4)cc2)NC(=O)OC2COC3(C)OCCC23)cc1 (centres unmarked) [Compound I-466]	8.37

Moving on to the next molecule.
Give its pIC50 value. Item: COc1ccc(S(=O)(=O)N(CC(C)C)CC(O)C(Cc2ccc(NCCCc3ccccc3-c3sc4c(c3C(=O)O)CC(C)(C)CC4)cc2)NC(=O)OC2COC3(C)OCCC23)cc1 (centres unmarked) [Compound I-260] 8.53
